Task for the reader: assign each of the following binders its reported pKd.
# target of assay: T1, EsCas13d, nuclease-dead (Eubacterium siraeum, UniProt B0MS50, R295A;H300A;R849A;H854A)
# T1 sequence: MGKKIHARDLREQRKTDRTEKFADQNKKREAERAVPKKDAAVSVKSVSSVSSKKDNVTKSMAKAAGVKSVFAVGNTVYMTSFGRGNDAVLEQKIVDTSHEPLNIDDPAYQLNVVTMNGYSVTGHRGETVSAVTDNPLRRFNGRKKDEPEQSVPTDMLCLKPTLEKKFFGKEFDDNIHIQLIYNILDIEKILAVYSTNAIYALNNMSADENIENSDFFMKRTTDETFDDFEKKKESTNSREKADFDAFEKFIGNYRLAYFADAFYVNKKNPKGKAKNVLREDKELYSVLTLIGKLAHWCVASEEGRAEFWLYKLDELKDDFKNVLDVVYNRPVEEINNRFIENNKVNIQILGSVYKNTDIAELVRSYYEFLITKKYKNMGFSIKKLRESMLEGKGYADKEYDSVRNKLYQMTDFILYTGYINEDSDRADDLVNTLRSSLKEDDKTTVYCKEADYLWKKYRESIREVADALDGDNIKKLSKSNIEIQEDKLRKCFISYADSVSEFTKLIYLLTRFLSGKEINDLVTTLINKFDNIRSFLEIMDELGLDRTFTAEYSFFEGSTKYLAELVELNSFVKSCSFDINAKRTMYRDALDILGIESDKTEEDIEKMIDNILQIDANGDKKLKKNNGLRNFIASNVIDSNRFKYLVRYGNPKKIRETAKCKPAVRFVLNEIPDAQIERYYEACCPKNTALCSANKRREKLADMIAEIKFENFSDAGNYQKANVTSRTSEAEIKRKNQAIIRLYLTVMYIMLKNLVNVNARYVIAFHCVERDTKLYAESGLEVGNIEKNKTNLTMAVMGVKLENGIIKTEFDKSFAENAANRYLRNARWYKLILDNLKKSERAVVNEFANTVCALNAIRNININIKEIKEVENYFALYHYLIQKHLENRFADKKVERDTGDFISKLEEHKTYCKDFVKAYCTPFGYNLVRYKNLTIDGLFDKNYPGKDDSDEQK
# assay text: crRNA (strand 1, pre-loaded); Mg2+; 40 mM Tris-HCl pH 7.5, 150 mM NaCl, 6 mM MgCl2, 1 mM DTT, 0.1% Tween-20, 0.2 mg/ml BSA; 25 C; 10 min per concentration, then washed
# measurement context: tags: His6-TwinStrep-SUMO cleaved; N-terminal SNAP kept (SNAP-Surface 488); label: 3' end held by stalled T7 RNA polymerase
One number for each entry, as −log10 of the molar value.

Please state, for each entry, its recorded pKd.
1. target 1 insA 3' of 19,insG 3' of 18 (mixed) RNA 1: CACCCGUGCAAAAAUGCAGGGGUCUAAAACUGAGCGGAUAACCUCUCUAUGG RNA 2: GGGAAUGGAUCCACAUCUACGAAUUCGUACCAUAAGGAGAGGUUAUCCGCUCACCGAGAUCGGAAGAGCACACGU
2. target 1 insU 3' of 22,insG 3' of 1 (mixed) RNA 1: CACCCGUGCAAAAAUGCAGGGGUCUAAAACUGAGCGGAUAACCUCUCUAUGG RNA 2: GGGAAUGGAUCCACAUCUACGAAUUCGUACUCAUAGAGAGGUUAUCCGCUCAGCCGAGAUCGGAAGAGCACACGU
3. target 2 MT 5'PFS UAU 3'PFS GCC (mixed) RNA 1: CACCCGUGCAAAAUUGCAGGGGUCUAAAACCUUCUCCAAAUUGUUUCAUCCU RNA 2: GGGAAUGGAUCCACAUCUACGAAUUCUAUAGGAUGAAACAAUUUGGAGAAGGCCAGAUCGGAAGAGCACACGU
4. target 1 U8G,U10A (mixed) RNA 1: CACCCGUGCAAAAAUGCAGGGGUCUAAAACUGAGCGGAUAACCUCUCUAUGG RNA 2: GGGAAUGGAUCCACAUCUACGAAUUCGUACCAUAGAGAGGUAAGCCGCUCACCGAGAUCGGAAGAGCACACGU

1. 7.01
2. 7.46
3. 7.37
4. 7.71

The origin of these recorded values is paper PMC10786891.
